tested on: LOX IMVI melanoma; test: NCI-60 one-dose screen, 48 h; settings: 10 µM unless noted
The panel holds about 83,000 compounds, 20% with a hit somewhere; the sample as a whole holds those more often. Calls of active or inactive are those of the source. Rule for the calls: active = growth percent below 10; inactive = the rest.
# output must be one of active, inactive

Before answering, review these 5 worked examples.
>  <Compound>
Cc1ccccc1OCC(O)COc1ccccc1C

>  <Target Of Assay>
LOX IMVI melanoma

>  <Discrete Label>
inactive

$$$$
>  <Compound>
COc1ccc(C/C(C)=C(\c2ccc(O)cc2)c2ccc(OCCN3CCCC3)cc2)cc1

>  <Target Of Assay>
LOX IMVI melanoma

>  <Discrete Label>
inactive

$$$$
>  <Compound>
CCN(CC)CCCNCc1cc(-c2ccccc2)nc2cc(Cl)ccc12

>  <Target Of Assay>
LOX IMVI melanoma

>  <Discrete Label>
active

$$$$
>  <Compound>
CCn1cc(C(=O)NN=C2CCCCCC2)c(=O)c2ccc(C)nc21

>  <Target Of Assay>
LOX IMVI melanoma

>  <Discrete Label>
inactive

$$$$
>  <Compound>
C=C(CN1CC=CCC1)[C@@H]1CC[C@]2(CO)CC[C@]3(C)[C@H](CC[C@@H]4[C@@]5(C)CC[C@H](O)C(C)(C)[C@@H]5CC[C@]43C)[C@@H]12

>  <Target Of Assay>
LOX IMVI melanoma

>  <Discrete Label>
inactive

$$$$

Field: next compound
Which outcome was assigned to O=C(OC[C@@H]1CO1)c1cccc2c(=O)c3ccccc3[nH]c12 in this test?
active

###

In this section, each of the molecules is paired with its reported growth.
system: UACC-257 melanoma; test: NCI-60 one-dose screen, 48 h (100 = growth as untreated, 0 = no growth, -100 = all killed); details: 10 µM unless noted
This is part of a sample that, as a whole, favours compounds with a hit. Of some 83,000 tested, about 20% had one in any assay. Active and inactive are the calls of the source. Rule for the calls: active = growth percent below 10; inactive = the rest.

>  <Molecule>
Nc1c(C(=O)O)cc(Cl)cc1[N+](=O)[O-]

>  <growth>
96.8% (inactive)

$$$$

Given the entry O=C(Nc1ccc(F)cc1)Nc1ccccc1CNc1nc(Nc2ccc(OCCN3CCCC3)cc2)ncc1Cl , what growth was observed with UACC-257 melanoma?
5.96% (active)

###

test system: NCI-H522 lung; test: NCI-60 one-dose screen, 48 h (100 = growth as untreated, 0 = no growth, -100 = all killed); conditions: 10 µM unless noted
About 83,000 compounds went through this panel and 20% of them were active in at least one assay; those are over-represented in the sample as a whole.
Measured Attribute: growth (%)
Entry rule: numbers only, all in %.

Observe how each entry below is paired with its result.
>  <Molecule>
COc1ccc(/C=C/C(=O)c2cc3c(N)c(C(=O)Nc4ccccc4C)sc3nc2C)cc1

>  <Target Of Assay>
NCI-H522 lung

>  <Quantity Unit>
%

>  <growth>
-28.4

$$$$
>  <Molecule>
COc1ccc2c(c1)c(-c1nonc1-c1cn(C)c3ccc(OC)cc13)cn2C

>  <Target Of Assay>
NCI-H522 lung

>  <Quantity Unit>
%

>  <growth>
18.5

$$$$
>  <Molecule>
CC(C)c1ccc(-n2c(=S)[nH]c3sc4c(c3c2=O)CCC(=O)C4)cc1

>  <Target Of Assay>
NCI-H522 lung

>  <Quantity Unit>
%

>  <growth>
6.26

$$$$
>  <Molecule>
COc1ccccc1-n1c(-c2cc(O)ccc2C)cn2c3c(=O)[nH]c(=O)n(C)c3nc12

>  <Target Of Assay>
NCI-H522 lung

>  <Quantity Unit>
%

>  <growth>
44.5

$$$$
>  <Molecule>
COc1cc(C(=O)c2c(N)ncn2-c2ccccc2)cc(OC)c1OC

>  <Target Of Assay>
NCI-H522 lung

>  <Quantity Unit>
%

>  <growth>
50.5

$$$$
>  <Molecule>
CN1CCN(Cc2ccc(NC(=O)c3cncc(C#Cc4cnn5ccccc45)c3)cc2C(F)(F)F)CC1

>  <Target Of Assay>
NCI-H522 lung

>  <Quantity Unit>
%

>  <growth>
-14.7

$$$$

Given COc1ccc(C2CC(c3ccc(Nc4nc(Nc5ccc(F)cc5)nc(Nc5ccc(F)cc5)n4)cc3)=NN2C(C)=O)cc1 (centres undefined) , state its recorded growth.
83.1

Let us now turn to C=CCOC(=O)C1=C(C)NC(=O)NC1c1c(Cl)n(C)c2ccccc12 (centres undefined)
93.3

Same for CC1(C)C2CC=C(/C=N/NC(=O)C3CCC(=O)N3)C1C2 (centres undefined)
99.9

###

Reported growth by item:
System: SR leukemia
Test: NCI-60 one-dose screen, 48 h (100 = growth as untreated, 0 = no growth, -100 = all killed)
Details: 10 µM unless noted
Description: Growth inhibition of the SR human tumor cell line is measured as a screen for anti-cancer activity. Cells are grown in 96 well plates and exposed to the test compound for 48 hours. Compounds are tested at a single concentration, which is 10^-5 M for most compounds. The reported endpoint is percent growth (GI% or GIPRCNT), where numbers from 0 - 100% represent growth inhibition, and numbers from -100% - 0 represent cell death. For example, a value of 40 represents 60% growth inhibition. […]
About 83,000 compounds went through this panel and 20% of them were active in at least one assay; those are over-represented in the sample as a whole.
Give the value, in units of %, as a plain number.

Sample answers from the record:
>  <Smiles Entry>
CC1(C)CCC(S(=O)(=O)c2ccc3c(c2)/C(=N\O)c2cc(S(=O)(=O)N4CCN(c5ccc(F)cc5O)CC4)ccc2-3)CC1

>  <growth / %>
-48.5

$$$$
>  <Smiles Entry>
COc1ncc2cc1NS(=O)(=O)c1cccc(c1)C(=O)NCC1=CC=C(S1)c1ncnc3c1SC2=C3C

>  <growth / %>
-3.91

$$$$
>  <Smiles Entry>
CN(C)Cc1ccc(C(=O)Nc2ccc3ncnc(Nc4ccc(Oc5cccc(F)c5)c(Cl)c4)c3c2)cc1

>  <growth / %>
-18.1

$$$$

Lab note: next molecule to report on.
Which measured growth belongs to CCCCCCCCNc1cc2c3c(c1)CCCN3CCC2 , tested on SR leukemia?
26

###

system: SNB-75 CNS; experiment: NCI-60 one-dose screen, 48 h; settings: 10 µM unless noted
The panel holds about 83,000 compounds, 20% with a hit somewhere; the sample as a whole holds those more often. Activity calls are given as the source filed them. Rule for the calls: active = growth percent below 10; inactive = the rest.
// classify into active, inactive

Worked examples, 3 compounds total:
>  <Compound>
O=c1ccc2nc(C(F)(F)F)nn(-c3ccccc3)c-2c1

>  <Target Of Assay>
SNB-75 CNS

>  <Discrete Label>
inactive

$$$$
>  <Compound>
C=CCn1c(SCC(=O)Nc2ccc(C(=O)/C=C/c3ccc(OC)cc3)cc2)nnc1-c1ccccc1

>  <Target Of Assay>
SNB-75 CNS

>  <Discrete Label>
inactive

$$$$
>  <Compound>
COc1cccc(/C=C/C(=O)c2cc3c(N)c(C(=O)Nc4cccc(Cl)c4C)sc3nc2C)c1

>  <Target Of Assay>
SNB-75 CNS

>  <Discrete Label>
active

$$$$

Outcome logged for COc1ccc(NC(=O)c2cccc(C3CCc4c(cc(OC)c(OC)c4OC)O3)c2)cc1 (stereo not given) in this assay:
inactive

Next compound: C/C(=C(\c1ccc(OCCN2CCCCCC2)cc1)c1ccc(OC(=O)Cc2ccccc2)cc1)c1ccc(Cl)cc1
inactive

###

test system: CCRF-CEM leukemia; assay: NCI-60 one-dose screen, 48 h; settings: 10 µM unless noted
The panel holds about 83,000 compounds, 20% with a hit somewhere; the sample as a whole holds those more often. The source made the active and inactive calls. The calls were made as follows: active = growth percent below 10; inactive = the rest.
Outcome field: choose from T (active), F (inactive)

>  <Compound>
O=c1[nH]cnc2c1C(c1ccc(Br)cc1)c1sc3c(F)cccc3c1O2 (stereo not given)

>  <Discrete Label>
T

$$$$
>  <Compound>
O=C(/C=C/c1ccc(Br)cc1)c1ccc(-n2cc(CN3CCN(c4cc5c(cc4F)c(=O)c(C(=O)O)cn5C4CC4)CC3)nn2)cc1

>  <Discrete Label>
F

$$$$
>  <Compound>
COc1ccc2nc3cc(Cl)ccc3c(NCCN)c2c1

>  <Discrete Label>
T

$$$$
>  <Compound>
COc1ccc2cc(-c3cnc4nonc4n3)ccc2c1

>  <Discrete Label>
T

$$$$

// return assay outcome for Cn1c(=O)c2c(c3ccccc31)OC(N)=C(C#N)C21C(=O)c2ccccc2C1=O
F

###

tested on: OVCAR-8 ovarian; experiment: NCI-60 one-dose screen, 48 h; settings: 10 µM unless noted
Compounds without any hit were thinned out: in the full panel of roughly 83,000, 20% have a hit. Calls of active or inactive are those of the source. How the source made its calls: active means growth percent below 10; inactive means the rest.
Permitted responses: active, inactive

>  <Molecule>
CCN(CC)c1ccc(/C=C\c2cc(C)c3cc(C)ccc3n2)cc1

>  <Discrete Label>
inactive

$$$$
>  <Molecule>
CCOC(=O)c1cn2ncnc(Oc3ccc(NC(=O)NC4CC4)c(F)c3)c2c1C

>  <Discrete Label>
inactive

$$$$
>  <Molecule>
C#CCn1cnc2c(Nc3cccc(NC(=O)CCl)c3)ncnc21

>  <Discrete Label>
inactive

$$$$
>  <Molecule>
Nc1c(C(=O)Nc2ccccn2)sc2nc3c(cc12)C(O)CCC3 (stereo not given)

>  <Discrete Label>
inactive

$$$$

In this assay, the call recorded for Fc1ccc(COc2ccc(Nc3ncnc4sc5c(c34)CCCC5)cc2)cc1 was what?
inactive

Check N#C/C(=C\c1ccc(Cl)cc1Cl)C(=O)Nc1ncc(Cc2ccc(Cl)c(Cl)c2)s1 too.
inactive

Next molecule: O=C(Nc1ncc(Cc2ccccc2Cl)s1)c1cccs1
inactive

Try this molecule next: COC(=O)C1=C(C)NC(C)=C(C(=O)OCC(C)C)C1c1ccccc1[N+](=O)[O-] (stereo not given)
inactive

Another molecule to look at: NC(=O)c1ccc(NC(=O)c2oc3ccccc3c2-c2cnn(-c3ccccc3)c2)cc1
inactive

Now the same for COc1cc(/C=C/c2cc(/C=C/c3ccc(O)c(OC)c3)n(C(=O)Nc3ccc(F)cc3)n2)ccc1O
active

And COc1ccc(Cl)cc1Nc1nc(C(F)(F)F)ccc1C(=O)N/N=C/c1ccccc1Cl ?
inactive

Next: COc1ccc(C2=NN(C(C)=O)C(c3ccc(Oc4ccnc5cc(Cl)ccc45)c(OC)c3)C2)cc1 (stereo not given)
inactive

Next up: COc1ccc(/C=C/C(=O)c2cc3c(N)c(C(=O)Nc4ccccc4C)sc3nc2C)cc1
active

Also COc1ccc(C(c2cc(OC)c(OC)c(OC)c2)N2CCCC2)cc1 (stereo not given) ?
inactive

Consider next the molecule COc1cc2c(cc1O)[C@@]1(C)[C@H](c3ccccc3Br)OC(=O)N1CC2 in the same way.
inactive

Also Nc1c(C(=O)Nc2ccncc2)sc2nc3c(cc12)CCCCC3 ?
inactive
